Measured Target: T1, HLT-iASPP Ank-SH3 (human, UniProt Q8WUF5 603-828)
T1 construct: iASPP (human), four ankyrin repeats and SH3 domain, residues 603-828, Swiss-Prot Q8WUF5; Detected on the arrays by its His tag (anti His HRP antibody); source: E. coli HMS 174, purified (Nickel Sepharose, size exclusion chromatography); not shown: HLT (His tag, lipoyl domain, TEV protease cleavage site), N-terminal, kept
T1 sequence (looked up): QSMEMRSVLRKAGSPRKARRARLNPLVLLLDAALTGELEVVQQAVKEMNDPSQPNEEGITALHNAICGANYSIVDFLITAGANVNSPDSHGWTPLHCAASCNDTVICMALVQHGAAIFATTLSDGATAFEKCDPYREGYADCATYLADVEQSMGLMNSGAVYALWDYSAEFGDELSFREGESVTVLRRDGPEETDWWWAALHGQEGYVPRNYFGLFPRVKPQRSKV
Protocol Notes: peptide or protein array; CelluSpots array of 79 partly overlapping 15-residue iASPP Pro peptides on cellulose; 5 uM HLT-iASPP Ank-SH3 in 20 mM phosphate pH 7.0, ionic strength 150 mM, 5 mM βME, 10% glycerol, 2.5% skimmed milk; 4 °C overnight; detected with anti His HRP antibody
Experimental Parameters: both partners purified
cellulose membrane = C-terminus attached to a cellulose membrane (CelluSpots array) through an amide bond

| Binder | binding result |
| --- | --- |
| Ac-QAGPPSRPPRYSSSS-{cellulose membrane} (also: C-terminus bound to cellulose membrane via amide, iASPP (human) residues 60-74; source: synthetic peptide on CelluSpots array (INTAVIS)) [iASPP Pro array peptide 60-74 (spot A14)] | binds |
| Ac-SRAMLPGSPLFTRAP-{cellulose membrane (amide bond)} (also: C-terminus bound to cellulose membrane via amide, iASPP (human) residues 388-402; source: synthetic peptide on CelluSpots array (INTAVIS)) [iASPP Pro array peptide 388-402 (spot C7)] | binds |
| Ac-APSPRPGPGPLRQQG-{cellulose membrane (amide bond)} (also: C-terminus bound to cellulose membrane via amide, iASPP (human) residues 156-170; source: synthetic peptide on CelluSpots array (INTAVIS)) [iASPP Pro array peptide 156-170 (spot B2)] | binds |
